- Test system: A375 multi-cell spheroids with HUVEC/MSC, viability
- method_notes: Anticancer human tumor A375 cell line growth inhibition [GQUAD];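 further: spheroids exposed to compounds for seven days before readout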
- conditions: second compound 0.316 µM; first compound 3.16 µM; stronger effect = lower value

[
  {
    "molecule": "Cc1cccc(N(C)C(=O)C2C(O)CCN2c2nc(C)cc(C(F)(F)F)c2C#N)c1 (stereo unspecified) + CN(C)c1ccc(Nc2c3ccc(NC(=O)CCN4CCCC4)cc3nc3cc(NC(=O)CCN4CCCC4)ccc23)cc1",
    "tested_target": "A375 multi-cell spheroids with HUVEC/MSC, viability",
    "readout_units": "%",
    "viability, T/C": 99.1
  },
  {
    "molecule": "CC1COCCN1c1cc(C2(O)CC3CCC(C2)O3)c2cnn(-c3ccn[nH]3)c2n1 (stereo unspecified) + Cc1[nH]c2ccc(F)cc2c1-c1nc2c3cccnc3c3ncccc3c2[nH]1",
    "tested_target": "A375 multi-cell spheroids with HUVEC/MSC, viability",
    "readout_units": "%",
    "viability, T/C": 13.3
  },
  {
    "molecule": "COc1cccc2c1C(=O)c1c(O)c3c(c(O)c1C2=O)CC(O)(C(=O)CO)CC3OC1CC(N)C(O)C(C)O1 (stereo unspecified) + Cc1cnc(CNC(=O)c2c(=O)c3ccc(N4CCCN(C)CC4)nc3n3c2sc2ccccc23)cn1",
    "tested_target": "A375 multi-cell spheroids with HUVEC/MSC, viability",
    "readout_units": "%",
    "viability, T/C": 0.21
  },
  {
    "molecule": "CCCS(=O)(=O)Nc1ccc(F)c(C(=O)c2c[nH]c3ncc(-c4ccc(Cl)cc4)cc23)c1F + CN(C)c1ccc(Nc2c3ccc(NC(=O)CCN4CCCC4)cc3nc3cc(NC(=O)CCN4CCCC4)ccc23)cc1",
    "tested_target": "A375 multi-cell spheroids with HUVEC/MSC, viability",
    "readout_units": "%",
    "viability, T/C": 4.48
  },
  {
    "molecule": "Nc1ccn(C2OC(CO)C(O)C2(F)F)c(=O)n1 (stereo unspecified) + Cc1[nH]c2ccc(F)cc2c1-c1nc2c3cccnc3c3ncccc3c2[nH]1",
    "tested_target": "A375 multi-cell spheroids with HUVEC/MSC, viability",
    "readout_units": "%",
    "viability, T/C": 10.8
  },
  {
    "molecule": "Nc1ccn(C2OC(CO)C(O)C2(F)F)c(=O)n1 (stereo unspecified) + CN(C)c1ccc(Nc2c3ccc(NC(=O)CCN4CCCC4)cc3nc3cc(NC(=O)CCN4CCCC4)ccc23)cc1",
    "tested_target": "A375 multi-cell spheroids with HUVEC/MSC, viability",
    "readout_units": "%",
    "viability, T/C": 8.24
  }
]

meta.source: PubChem BioAssay AID2060485
